# Tested on: NCI-H322M lung
# assay: NCI-60 one-dose screen, 48 h (100 = growth as untreated, 0 = no growth, -100 = all killed)
# particulars: 10 µM unless noted
Compounds without any hit were thinned out: in the full panel of roughly 83,000, 20% have a hit.
growth values for the compounds below.
// units = %; emit number, no label

As a guide, the following entries are already answered.
{"compound": "O=C(O)CC(Br)C(=O)CBr (configuration not stated)", "growth (%)": 100}
{"compound": "CC12CCC(=O)C=C1C(O)CC1C2CCC2(C)C(O)CCC12 (configuration not stated)", "growth (%)": 98}

Summary for this compound, COc1cc(CNCCc2ccc(Cl)cc2)cc(OC)c1O : growth is 78.9

Noted for COc1ccc(C2SCC(=O)Nc3c2c(C)nn3-c2nc3ccc(C)cc3s2)cc1O (configuration not stated) : its growth reads 56.3

For this compound ( Cc1cc(N(CCCl)CCCl)ccc1C=Nc1ccc2ccccc2c1 ), measured growth is 103

According to the records, this compound COc1ccc(CN2CCN(Cc3ccccc3)CC2)c(O)c1 displays growth of 92.3

Lab note: O1[As]2O[As]3O[As]1O[As](O2)O3 gave growth of 38.2

Looking up Cn1cnnc1[S-].[Au+].c1ccc([PH+](c2ccccc2)c2ccccc2)cc1 , I see its growth listed as 89

###

Reported growth is given for each of the following molecules.
# Test system: HL-60(TB) leukemia
# assay: NCI-60 one-dose screen, 48 h (100 = growth as untreated, 0 = no growth, -100 = all killed)
# particulars: 10 µM unless noted
The panel holds about 83,000 compounds, 20% with a hit somewhere; the sample as a whole holds those more often.
Give just the numeric value; % need not be written.

The following molecules have reported results that may help.
{"molecule": "O=c1oc2ccc(I)cc2c(=O)n1-c1ccc(I)cc1F", "growth [%]": -49.1}
{"molecule": "CCCCCCCCCCCCCCCCCCOc1ccccc1CCCOP(=O)(O)OCC[N+](C)(C)C", "growth [%]": 21.9}
{"molecule": "O=C1OC(c2ccccc2)C(O)=C1c1ccccc1 (stereo not drawn)", "growth [%]": 101}
{"molecule": "CS(=O)(=O)Nc1cncc(-c2ccc3ncnc(Nc4cncc(Cl)c4)c3c2)c1", "growth [%]": 71.5}
{"molecule": "COc1ccc(-c2cn3c(ccc4ccccc43)n2)cc1", "growth [%]": 109}
{"molecule": "CCC(C)Nc1ccc(NC(C)CC)cc1 (stereo not drawn)", "growth [%]": 57.5}
{"molecule": "COc1cc2c(cc1OC)-c1c(oc3c4c(ccc3c1=O)OC(C)(C)C=C4)CO2", "growth [%]": 46.4}
{"molecule": "N#Cc1ccc(C(=O)CSc2nccc(Nc3ccc(C(=O)O)cc3)n2)cc1", "growth [%]": 99.5}
{"molecule": "CC(C)CCSc1nc(Nc2ccccc2)c(C#N)c(-c2ccc(F)cc2)n1", "growth [%]": 59.6}
{"molecule": "COc1ccc(C(=O)c2cc(C)c(OC)c(C)c2)c(OC)c1OC(=O)C(Cl)Cl", "growth [%]": -35.7}

For this molecule ( Cc1ccc2nc(NC(=O)CSc3nc(Nc4ccc([N+](=O)[O-])cc4)c(C#N)c(-c4ccccc4)n3)sc2c1 ), measured growth is 95.2

Clc1ccc2c(NCCCNc3nccc(Nc4ccc(Br)cc4)n3)ccnc2c1 yielded growth of -69.2

Reported growth of CCCOc1cc2ccccc2cc1C(=O)Nc1nc(N)c2c(ccc3nccc32)[nH]1 : -56.3

Record summary for O=C1C=CC(=O)N1c1ccc2c(c1)Cc1cc(F)ccc1-2 : reported growth = 63

Just so you know, measured growth for COc1ccc2c(c1)c(-c1nc(-c3c[nH]c4ncccc34)cs1)cn2C came out at 63.5
